Target: GlcNAc(b1-3)Gal(b1-4)Glc
Test: glycan array binding signal (z-score within array); higher = stronger binding
Details: glycan notation: IUPAC condensed, linker removed
The sample as a whole holds a higher share of the strongest signals than the screen did.
Assignment: determine reported glycan array binding signal (z-score) for the given binders.
Provide a numeric answer; units are not to be included.

Problem: Query (binder): Epa8 (Candida glabrata) (protein) MGSSHHHHHHSSGLVPRGSHMASSRALSDYPLGCSPLLGTKLTPGLSMELYEYPLDNHGIGPHCWDPAYLNPEYPRTGFESHKLIGTAQNVMSLNFEHRTQDCHVEFSNLPASFNFPDQITLTNFTMLLYGYFKPKESGRYRFHMEADDLLLMNLGAGNAFDCCAHEATRNNLGDYIAYDIWAGTRKDVEVFLEKEVFYPLRLFFNNRDGRAALDFSYYLNGATEPGTDIPELLFSLPDGESCPAYI ; field requested: glycan array binding signal (z-score)
Solution: -0.331

Problem: Query (binder): Ecp6 (Cladosporium fulvum), B3VBK9 (protein) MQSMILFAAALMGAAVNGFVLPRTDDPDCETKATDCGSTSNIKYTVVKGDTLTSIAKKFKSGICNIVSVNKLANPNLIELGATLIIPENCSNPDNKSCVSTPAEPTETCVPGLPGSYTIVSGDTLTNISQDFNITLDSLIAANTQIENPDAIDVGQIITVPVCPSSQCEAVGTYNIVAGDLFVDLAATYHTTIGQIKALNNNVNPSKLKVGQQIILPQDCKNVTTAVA ; field requested: glycan array binding signal (z-score)
Solution: -0.094

Problem: Query (binder): GH95CBM (Clostridium perfringens) (protein) EKVAVETSVYLSELEWKSASTGYGEIQKDASCDGNTITLKGENGEKVSYDKGIGTHAHSEIVYSLEGLDYYDYFETFVGVDQEMAGTVASISFEVYLDNEKVFDSGLMTGDTTQKHVKVPIAGKNTLKLVVKDGGDSIGSDHGSFGDAKLT ; field requested: glycan array binding signal (z-score)
Solution: -0.347

Problem: Query (binder): Aap lectin (Staphylococcus epidermidis) (protein) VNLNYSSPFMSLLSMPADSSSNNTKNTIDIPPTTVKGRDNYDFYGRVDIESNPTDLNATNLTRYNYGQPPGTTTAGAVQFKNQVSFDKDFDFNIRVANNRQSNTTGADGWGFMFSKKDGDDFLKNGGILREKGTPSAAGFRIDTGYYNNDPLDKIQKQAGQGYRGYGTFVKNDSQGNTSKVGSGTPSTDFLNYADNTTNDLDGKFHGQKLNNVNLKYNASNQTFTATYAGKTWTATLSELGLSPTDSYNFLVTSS ; field requested: glycan array binding signal (z-score)
Solution: 0.941

Problem: Query (binder): Epa19 (Candida glabrata) (protein) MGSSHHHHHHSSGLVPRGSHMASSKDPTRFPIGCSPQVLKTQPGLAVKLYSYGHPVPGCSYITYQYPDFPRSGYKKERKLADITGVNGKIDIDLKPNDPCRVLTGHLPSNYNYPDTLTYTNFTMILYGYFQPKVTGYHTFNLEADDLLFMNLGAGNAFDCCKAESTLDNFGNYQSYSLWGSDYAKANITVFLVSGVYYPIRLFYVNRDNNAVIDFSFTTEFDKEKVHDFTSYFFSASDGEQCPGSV ; field requested: glycan array binding signal (z-score)
Solution: -0.077

Problem: Query (binder): F17dG (Escherichia coli), Q47199 (protein) MTNFYKVFLAVFILVCCNISQAAVSFIGSTENDVGPSPGSYSRTHAMDNLPFVYNTGNNIGYQNANVWRISKGFCVGLDGKVDLPVVGSLDGQSIYGLTEEVGLLIWMGDTNYSRGTAMSGNSWENVFSGWCVGANTASTQGLSVRVTPVILKRNSSARYSVQKTSIGSIRMRPYNGSSAGSVQTTVNFSLNPFTLNDTVTSCRLLTPSAVNVSLAAISAGQLPSSGDEVVAGTTSLKLQCDAGVTVWATLTDATTPSNRSDILTLTGASTATGVGLRIYKNTDSTPLKFGPDSPVKGNENQWQLSTGTETSPSVRLYVKYVNTGEGINPGTVNGISTFTFSYQ ; field requested: glycan array binding signal (z-score)
Solution: 5.88

Problem: Query (binder): F4 (Escherichia coli), A0A6L9DDF0 (protein) MKKTLIALALAASAVSGMAHAWTSGDFNGTVDIGGSIDATNYRQKWEWEVGTGLNGFYNALSELTNNDTKLTITVTGNKPILLGRTKEAFVTPTAGGWGGIPQIAFTDYKGAPVELKNPDGETNKGLAYFVLPMKNADGTEAGSVRVNASYAGAVVEKTSDSSAKLFSAYAGEVIRIFNGGLPVNVTQSELQSGVAAADRTALFGSLGKADLVAQFQAVIPGATVTDGTSSEHCTMRLLASAAYALGIADGQTIEATFNQAVTTSTQWSAPLNVAITYY ; field requested: glycan array binding signal (z-score)
Solution: 8.86

Problem: Query (binder): AFCNVH (Aspergillus fumigatus) (protein) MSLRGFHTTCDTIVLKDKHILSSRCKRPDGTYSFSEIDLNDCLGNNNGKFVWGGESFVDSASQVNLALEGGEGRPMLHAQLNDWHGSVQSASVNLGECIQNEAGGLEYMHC ; field requested: glycan array binding signal (z-score)
Solution: -0.196

Problem: Query (binder): LngA (Escherichia coli) (protein) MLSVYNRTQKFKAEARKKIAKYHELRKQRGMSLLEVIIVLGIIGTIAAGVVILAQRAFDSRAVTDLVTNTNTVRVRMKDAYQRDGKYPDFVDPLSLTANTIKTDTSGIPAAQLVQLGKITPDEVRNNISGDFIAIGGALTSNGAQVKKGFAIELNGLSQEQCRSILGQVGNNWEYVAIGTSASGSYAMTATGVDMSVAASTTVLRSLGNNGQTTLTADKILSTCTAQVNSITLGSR ; field requested: glycan array binding signal (z-score)
Solution: -0.256

Problem: Query (binder): X56-1 (Clostridium perfringens), P26831 (protein) MGSSHHHHHHSSGLVPRGSHMASDPNRIIATYISNRQDAPTGNPDNIFDNNASTELVYKNPNRIDVGTYVGVKYSNPITLNNVEFLMGANSNPNDTMQKAKIQYTVDGREWIDLEEGVEYTMPGAIKVENLDLKVRGVRLIATEARENTWLGVRDINVNKKEDSNSGVEF ; field requested: glycan array binding signal (z-score)
Solution: -0.355

Problem: Query (binder): F17aG (Escherichia coli), Q99003 (protein) MTNFYKVFLAVFILVCCNISQAAVSFIGSTENDVGPSLGSYSRTHAMDNLPFVYDTRNKIGYQNANVWHISKGFCVGLDGKVDLPVVGSLDGQSIYGLTEEVGLLIWMGDTKYSRGTAMSGNSWENVFSGWCVGANTASTQGLSVRVTPVILKRNSSARYSVQKTSIGSIRMRPYNGSSAGSVQTTVNFSLNPFTLNDTVTSCRLLTPSAVNVSLAAISAGQLPSSGDEVVAGTTSLKLQCDAGVTVWATLTDATTPSNRSDILTLTGASTATGVGLRIYKNTDSTPLKFGPDSPVKGNENQWQLSTGTETSPSVRLYVKYVNTGEGINPGTVNGISTFTFSYQ ; field requested: glycan array binding signal (z-score)
Solution: 8.79
